targetOrSystem: T1, recombinant soluble human TREM2 protein (human TREM2 ECD-FlagHis) (human, UniProt Q9NZC2 19-174)
T1 sequence: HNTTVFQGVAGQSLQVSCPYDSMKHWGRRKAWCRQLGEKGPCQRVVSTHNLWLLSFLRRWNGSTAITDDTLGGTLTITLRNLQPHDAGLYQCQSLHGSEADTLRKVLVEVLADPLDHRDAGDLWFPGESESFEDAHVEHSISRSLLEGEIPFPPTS
assayDetails: Octet BLI binning; competitor: load Ab 32E3
endpoint: sandwich binding signal

Some binders with recorded sandwich binding signal:
binder	sandwich binding signal
4G10 (antibody, human IgG2, V domains shown, human IgG2 from hybridoma) VH: EVQLVQSGAEVKKPGESLKISCKGSGYSFPSYWIAWVRQMPGKGLEWMGIIYPGDSDTRYSPSFQGQVTISADKSISTAFLKWSSLKASDTAMYFCARQGIEVTGTGGLDVWGQGTTVTVSS VL: DIQMTQSPSSLSASVGDRVTITCRASQGIRNDLGWYQQKPGNAPKRLIYAASSLPSGVPSRFSGSGSGPEFTLTISSLQPEDFATYYCLQHNSYPWTFGQGTKVEIT	-0.029
4C5 (antibody, V domains shown, human IgG2 from hybridoma) VH: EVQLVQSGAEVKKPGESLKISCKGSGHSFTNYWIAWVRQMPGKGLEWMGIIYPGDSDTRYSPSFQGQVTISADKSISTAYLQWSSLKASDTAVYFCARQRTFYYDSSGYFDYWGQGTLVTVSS VL: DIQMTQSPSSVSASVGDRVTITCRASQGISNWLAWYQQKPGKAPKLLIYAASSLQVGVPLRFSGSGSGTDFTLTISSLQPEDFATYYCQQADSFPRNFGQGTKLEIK	-0.01
5E3 (antibody, human IgG2, V domains shown, human IgG2 from hybridoma) VH: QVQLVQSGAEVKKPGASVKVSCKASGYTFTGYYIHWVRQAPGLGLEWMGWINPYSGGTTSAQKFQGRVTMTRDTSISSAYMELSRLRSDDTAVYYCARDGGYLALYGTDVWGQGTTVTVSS VL: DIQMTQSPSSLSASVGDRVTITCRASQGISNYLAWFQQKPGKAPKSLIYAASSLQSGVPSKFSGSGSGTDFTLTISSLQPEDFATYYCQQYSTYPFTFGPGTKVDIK	0.338
24F4 (antibody, human IgG2, V domains shown, human IgG2 from hybridoma) VH: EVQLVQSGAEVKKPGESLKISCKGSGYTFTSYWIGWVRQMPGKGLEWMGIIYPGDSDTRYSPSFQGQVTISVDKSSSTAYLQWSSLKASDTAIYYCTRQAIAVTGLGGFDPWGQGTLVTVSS VL: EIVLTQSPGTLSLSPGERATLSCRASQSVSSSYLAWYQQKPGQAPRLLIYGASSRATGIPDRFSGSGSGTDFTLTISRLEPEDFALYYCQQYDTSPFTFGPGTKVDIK	-0.001

Next binder, sandwich binding signal to be filled in.
Exercise: Name the recorded sandwich binding signal for 13E7 (antibody, human IgG2, V domains shown, human IgG2 from hybridoma) VH: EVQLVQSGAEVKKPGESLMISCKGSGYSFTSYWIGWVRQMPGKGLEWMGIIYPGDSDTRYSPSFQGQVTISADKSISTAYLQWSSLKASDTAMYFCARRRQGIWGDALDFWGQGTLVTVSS VL: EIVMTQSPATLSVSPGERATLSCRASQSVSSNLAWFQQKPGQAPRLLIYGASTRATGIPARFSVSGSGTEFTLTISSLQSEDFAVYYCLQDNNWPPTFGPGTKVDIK .
Key: 0.01
